- experimentSummary: Pharmacokinetic evaluation in SD rats
- Format: in vivo
- assayContext: male, rat, plasma, inhaled or intranasal, 5 mg/kg, intra-tracheal 5 mpk, 10% aqueous HPβCD, read-out: Concentration integration AUC for intra-tracheal administration with a nebulizer needle
Counter-ions that a name gives are not always drawn.
Exercise: state measured AUC for each of the molecules provided.
Could you give me the number in µM·h? Just the number is fine.

# lookup: AUC of CN(CCCn1nnc2cc(CNC[C@H](O)c3ccc(O)c4[nH]c(=O)ccc34)ccc21)[C@H]1CC[C@H](OC(=O)C(O)(c2cccs2)c2cccs2)CC1 [Hydrofluoride salt of AZD8871, reference compound] 2.44

Do the same for CN(CCCn1nnc2cc(CNC[C@H](O)c3ccc(O)c4[nH]c(=O)ccc34)c3c(c21)CCC3)[C@H]1CC[C@H](OC(=O)C(O)(c2cccs2)c2cccs2)CC1 [Trifluoroacetate salt of compound 1] please 2.61

----------
- experimentSummary: Pharmacokinetic evaluation in SD rats
- Assay type: in vivo
- assayContext: male, rat, plasma, inhaled or intranasal, 5 mg/kg, intra-tracheal 5 mpk, 10% aqueous HPβCD, read-out: Half life T1/2 for intra-tracheal administration with a nebulizer needle (converted)
- Experimental: To test pharmacokinetics of test compounds in SD rats SD rats (male, 200-250 g, 7-9 weeks old, Beijing Vital River Laboratory Animal Technology Co., Ltd.) […] Whole blood samples (0.25 mL) were collected via the jugular vein (or other suitable collection site) at prescribed time points, and all blood samples were added to labeled plastic centrifuge tubes containing a K2-EDTA anticoagulant. […] All samples were analyzed by LC-MS/MS with a limit of detection of 4 nM. […]
Where a name gives a salt, the structure may show the parent alone.
measurementType: half-life
Reply with a number, then the unit it belongs to.

# lookup: half-life of CN(CCCn1nnc2cc(CNC[C@H](O)c3ccc(O)c4[nH]c(=O)ccc34)ccc21)[C@H]1CC[C@H](OC(=O)C(O)(c2cccs2)c2cccs2)CC1 [Hydrofluoride salt of AZD8871, reference compound] 30.9 min

Do the same for CN(CCCn1nnc2cc(CNC[C@H](O)c3ccc(O)c4[nH]c(=O)ccc34)c3c(c21)CCC3)[C@H]1CC[C@H](OC(=O)C(O)(c2cccs2)c2cccs2)CC1 [Trifluoroacetate salt of compound 1] please 82.8 min

----------
- systemTested: β1 receptor (cells expressing human ADRB1 gene) (Homo sapiens (Human))
- Sequence (P08588 whole entry): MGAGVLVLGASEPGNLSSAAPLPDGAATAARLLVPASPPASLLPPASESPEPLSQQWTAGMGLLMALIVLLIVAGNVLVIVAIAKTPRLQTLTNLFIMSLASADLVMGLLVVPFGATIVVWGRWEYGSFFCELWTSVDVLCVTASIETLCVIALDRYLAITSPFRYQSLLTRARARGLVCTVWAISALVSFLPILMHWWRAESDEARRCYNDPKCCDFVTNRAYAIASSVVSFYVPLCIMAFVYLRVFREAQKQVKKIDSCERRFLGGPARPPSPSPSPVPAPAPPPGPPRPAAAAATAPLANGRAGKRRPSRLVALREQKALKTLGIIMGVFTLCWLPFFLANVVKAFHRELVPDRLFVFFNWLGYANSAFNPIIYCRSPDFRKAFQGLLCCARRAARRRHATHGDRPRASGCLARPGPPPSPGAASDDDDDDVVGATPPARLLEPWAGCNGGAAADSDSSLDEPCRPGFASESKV
- experimentSummary: Agonistic effect on β1 receptor by HTRF cAMP method
- Assay type: cell-based
- assayContext: HTRF cAMP, 1 h incubation at room temperature; read-out: EC50, agonistic activity against the β1 receptor in vitro
Where a name gives a salt, the structure may show the parent alone.
measurementType: pEC50
Please report pEC50 as the negative decimal logarithm of the molar concentration, giving only the number.

# lookup: pEC50 of Cc1ccc(C(O)(C(=O)C[C@H]2CC[C@H](N(C)CCCn3nnc4cc(CNC[C@H](O)c5ccc(O)c6[nH]c(=O)ccc56)c5c(c43)CCC5)CC2)c2ccc(C)s2)s1 [Formate salt of compound 32] 6.84

----------
- systemTested: β2 receptor (cells expressing human ADRB2 gene) (Homo sapiens (Human))
- Sequence (P07550 whole entry): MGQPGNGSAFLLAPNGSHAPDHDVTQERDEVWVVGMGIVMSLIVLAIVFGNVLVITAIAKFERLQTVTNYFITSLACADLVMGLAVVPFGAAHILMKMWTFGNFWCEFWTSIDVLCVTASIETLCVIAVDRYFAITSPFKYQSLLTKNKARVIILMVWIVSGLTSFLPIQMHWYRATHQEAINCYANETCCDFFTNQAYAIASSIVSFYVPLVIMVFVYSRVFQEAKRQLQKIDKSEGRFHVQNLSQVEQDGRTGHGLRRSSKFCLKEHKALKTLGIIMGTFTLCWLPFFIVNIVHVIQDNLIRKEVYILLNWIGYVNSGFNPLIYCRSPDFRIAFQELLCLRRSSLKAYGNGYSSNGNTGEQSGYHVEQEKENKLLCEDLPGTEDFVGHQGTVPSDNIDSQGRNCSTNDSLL
- experimentSummary: Agonistic effect on β2 receptor by HTRF cAMP method
- Assay type: cell-based
- assayContext: HTRF cAMP, 1 h incubation at room temperature; read-out: EC50, agonistic activity against the β2 receptor in vitro
Structures can show the parent of a compound that is named as a salt.
measurementType: pEC50
Please report pEC50 as the negative decimal logarithm of the molar concentration, giving only the number.

# lookup: pEC50 of CN(CCCn1nnc2cc(CNC[C@H](O)c3ccc(O)c4[nH]c(=O)ccc34)c3c(c21)CCC3)[C@H]1CC[C@H](OC(=O)C(O)(c2ccc(Cl)s2)c2ccc(Cl)s2)CC1 [Trifluoroacetate salt of compound 10] 8.87

Do the same for CN(CCCn1nnc2cc(CNC[C@H](O)c3ccc(O)c4[nH]c(=O)ccc34)c3c(c21)OCCO3)[C@H]1CC[C@H](OC(=O)C(O)(c2cccs2)c2cccs2)CC1 [Formate salt of compound 12] please 8.69

Do the same for CN(CCCn1nnc2cc(CNC[C@H](O)c3ccc(O)c4[nH]c(=O)ccc34)c3c(c21)CCC3)[C@H]1CC[C@H](OC(=O)C(O)(c2cccs2)c2cccs2)CC1 [Trifluoroacetate salt of compound 1] please 8.46

Do the same for "Cn1ncc2c(CNC[C@H](O)c3ccc(O)c4[nH]c(=O)ccc34)cc3nnn(CCCN(C)[C@H]4CC[C@H](OC(=O)C(O)(c5cccs5)c5cccs5)CC4)c3c21" please 8.95

Do the same for O=C(OC1CC2(C1)CN(CCCn1nnc3cc(CNC[C@H](O)c4ccc(O)c5[nH]c(=O)ccc45)c4c(c31)CCC4)C2)C(O)(c1cccs1)c1cccs1 [Formate salt of compound 2] please 9.05

Do the same for O=C(OC1CCC2(CC1)CN(CCCn1nnc3cc(CNC[C@H](O)c4ccc(O)c5[nH]c(=O)ccc45)c4c(c31)CCC4)C2)C(O)(c1cccs1)c1cccs1 [Formate salt of compound 4] please 8.67

Do the same for O=C(OC1CC2(CCN(CCCn3nnc4cc(CNC[C@H](O)c5ccc(O)c6[nH]c(=O)ccc56)c5c(c43)CCC5)CC2)C1)C(O)(c1ccc(Cl)s1)c1ccc(Cl)s1 [Formate salt of compound 19] please 8.29

Do the same for Cc1ccc(C(O)(C(=O)C[C@H]2CC[C@H](N(C)CCCn3nnc4cc(CNC[C@H](O)c5ccc(O)c6[nH]c(=O)ccc56)c5c(c43)CCC5)CC2)c2ccc(C)s2)s1 [Formate salt of compound 32] please 8.80

----------
- systemTested: M3 receptor (Homo sapiens (Human))
- Sequence (P20309 whole entry): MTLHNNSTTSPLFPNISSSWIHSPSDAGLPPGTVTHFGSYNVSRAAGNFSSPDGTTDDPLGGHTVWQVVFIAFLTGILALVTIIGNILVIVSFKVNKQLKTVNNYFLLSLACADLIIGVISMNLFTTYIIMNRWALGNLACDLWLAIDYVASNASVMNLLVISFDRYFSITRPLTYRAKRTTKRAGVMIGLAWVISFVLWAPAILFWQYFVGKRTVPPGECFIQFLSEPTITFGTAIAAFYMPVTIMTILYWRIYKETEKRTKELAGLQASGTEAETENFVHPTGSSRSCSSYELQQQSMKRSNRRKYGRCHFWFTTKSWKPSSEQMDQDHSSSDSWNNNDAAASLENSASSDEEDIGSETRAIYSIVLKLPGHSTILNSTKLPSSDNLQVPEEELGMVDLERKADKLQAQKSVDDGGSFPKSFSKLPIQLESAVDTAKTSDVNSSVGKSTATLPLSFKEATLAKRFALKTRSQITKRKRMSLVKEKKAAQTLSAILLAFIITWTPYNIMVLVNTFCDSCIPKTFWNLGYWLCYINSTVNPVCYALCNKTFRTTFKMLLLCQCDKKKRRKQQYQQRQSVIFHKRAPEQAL
- experimentSummary: M3 receptor affinity test (3H-NMS competition)
- Format: binding
- assayContext: read-out: IC50, activity against the M3 receptor in vitro
Where a name gives a salt, the structure may show the parent alone.
measurementType: IC50 (nM)
Could you give me the number in nM? Just the number is fine.

# lookup: IC50 of Cn1ncc2c(CNC[C@H](O)c3ccc(O)c4[nH]c(=O)ccc34)cc3nnn(CCCN(C)[C@H]4CC[C@H](OC(=O)C(O)(c5cccs5)c5cccs5)CC4)c3c21 [Compound 11] 0.638

Do the same for CN(CCCn1nnc2cc(CNC[C@H](O)c3ccc(O)c4[nH]c(=O)ccc34)c3c(c21)CCC3)[C@H]1CC[C@H](OC(=O)C(O)(c2cccs2)c2cccs2)CC1 [Trifluoroacetate salt of compound 1] please 0.384

Do the same for CN(CCCn1nnc2cc(CNC[C@H](O)c3ccc(O)c4[nH]c(=O)ccc34)c3c(c21)CCC3)[C@H]1CC[C@H](OC(=O)C(O)(c2ccc(Cl)s2)c2ccc(Cl)s2)CC1 [Trifluoroacetate salt of compound 10] please 1.27

Do the same for O=C(OCC1(O)CCN(CCCn2nnc3cc(CNC[C@H](O)c4ccc(O)c5[nH]c(=O)ccc45)c4c(c32)CCC4)CC1)C(O)(c1cccs1)c1cccs1 [Formate salt of compound 31] please 0.655

Do the same for O=C(OC1CCC2(CC1)CN(CCCn1nnc3cc(CNC[C@H](O)c4ccc(O)c5[nH]c(=O)ccc45)c4c(c31)CCC4)C2)C(O)(c1cccs1)c1cccs1 [Formate salt of compound 4] please 0.343

Do the same for O=C(OC1CC2(C1)CN(CCCn1nnc3cc(CNC[C@H](O)c4ccc(O)c5[nH]c(=O)ccc45)c4c(c31)CCC4)C2)C(O)(c1cccs1)c1cccs1 [Formate salt of compound 2] please 0.347

Do the same for O=C(OC1CC2(CCN(CCCn3nnc4cc(CNC[C@H](O)c5ccc(O)c6[nH]c(=O)ccc56)c5c(c43)CCC5)CC2)C1)C(O)(c1ccc(Cl)s1)c1ccc(Cl)s1 [Formate salt of compound 19] please 0.281

----------
- systemTested: β1 receptor (cells expressing human ADRB1 gene) (Homo sapiens (Human))
- experimentSummary: Agonistic effect on β1 receptor by HTRF cAMP method
- Assay type: cell-based
Structures can show the parent of a compound that is named as a salt.
measurementType: pEC50
Please report pEC50 as the negative decimal logarithm of the molar concentration, giving only the number.

# lookup: pEC50 of CN(CCCn1nnc2cc(CNC[C@H](O)c3ccc(O)c4[nH]c(=O)ccc34)c3c(c21)OCO3)[C@H]1CC[C@H](OC(=O)C(O)(c2cccs2)c2cccs2)CC1 [Formate salt of compound 33] 7.27

Do the same for CN(CCCn1cnc2cc(CNC[C@H](O)c3ccc(O)c4[nH]c(=O)ccc34)c3c(c21)CCC3)[C@H]1CC[C@H](OC(=O)C(O)(c2cccs2)c2cccs2)CC1 [Formate salt of compound 41] please 6.64

Do the same for Cn1ncc2c(CNC[C@H](O)c3ccc(O)c4[nH]c(=O)ccc34)cc3nnn(CCCN(C)[C@H]4CC[C@H](OC(=O)C(O)(c5cccs5)c5cccs5)CC4)c3c21 [Compound 11] please 7.47

Do the same for CN(CCCn1nnc2cc(CNC[C@H](O)c3ccc(O)c4[nH]c(=O)ccc34)c3c(c21)OCCO3)[C@H]1CC[C@H](OC(=O)C(O)(c2cccs2)c2cccs2)CC1 [Formate salt of compound 12] please 6.90

Do the same for CN(CCCn1nnc2cc(CNC[C@H](O)c3ccc(O)c4[nH]c(=O)ccc34)c3c(c21)CCC3)[C@H]1CC[C@H](OC(=O)C(O)(c2ccc(Cl)s2)c2ccc(Cl)s2)CC1 [Trifluoroacetate salt of compound 10] please 6.57
